src = patent US20150246947A1

Target: T1, human Protein S (UniProt P07225 42-676)
T1 chain: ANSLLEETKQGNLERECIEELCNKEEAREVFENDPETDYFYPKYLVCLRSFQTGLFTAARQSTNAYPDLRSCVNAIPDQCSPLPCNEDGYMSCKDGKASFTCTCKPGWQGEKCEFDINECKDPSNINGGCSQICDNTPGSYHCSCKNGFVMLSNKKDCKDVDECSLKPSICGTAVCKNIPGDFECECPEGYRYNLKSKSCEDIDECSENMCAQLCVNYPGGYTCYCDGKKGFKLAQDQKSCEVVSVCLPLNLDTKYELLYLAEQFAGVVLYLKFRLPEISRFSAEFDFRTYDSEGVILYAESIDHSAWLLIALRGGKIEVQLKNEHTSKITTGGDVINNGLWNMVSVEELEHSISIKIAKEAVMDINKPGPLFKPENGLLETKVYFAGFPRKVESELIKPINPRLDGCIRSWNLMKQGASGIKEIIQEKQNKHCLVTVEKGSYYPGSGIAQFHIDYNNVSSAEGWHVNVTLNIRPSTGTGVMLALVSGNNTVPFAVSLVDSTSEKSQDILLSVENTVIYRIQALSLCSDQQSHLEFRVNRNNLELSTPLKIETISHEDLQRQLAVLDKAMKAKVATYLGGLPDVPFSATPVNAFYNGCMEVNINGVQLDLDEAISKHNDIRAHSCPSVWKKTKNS
Experiment: LANCE competition
400Mal‑PEG = 40 kD PEG moiety attached via maleimide
endpoint.label: IC50
Lab note: write values as number then unit, every time.

For orientation, consider the following solved cases.
Ac-AIYVTAGWYDYNNDTYYEFT-NH2 [JBS3283] ... 0.9 nM
Ac-YNEVSAGWYDMNEDTYYEFY-NH2 [JBS3280] ... 5.3 nM
Ac-KVEVSAGWYDYNKDVYYEFE-NH2 [JBS3299] ... 2 nM
Ac-EYYVSAGWYDYNTDTYYEFEC(400Mal‑PEG)-NH2 (JBS3319 conjugated to a 40 kD PEG moiety) [JBS3318] ... 2.8 nM
Ac-EYFVSAGWYDYNADIYYEFD-NH2 [JBS3278] ... 1.1 nM

IC50 for Ac-ESYVSAGWYDYNIDAYYEFY-NH2 [JBS3261] is 2 nM

IC50 for EYYVSAGWYDYNTDTYYEFEC [JBS3320] is 0.5 nM
